# Tested on: SW-620
# testDetails: NCI tumour cell line growth inhibition, 48 h
Calls of active or inactive are those of the source. Rule as the data show it: active = GI50 up to about 1.1 µM and inactive = higher.
Readings of GI50 for the listed molecules
endpointName: GI50

• CC(Cl)(/C=C/Cl)C(Cl)/C=C/C(Cl)(CCl)CBr (stereo not given) = 2.15 µM (inactive)
• Cc1ccc(S(=O)(=O)N/N=c2\c(C)c(C3=NS(=O)(=O)c4cc(S(N)(=O)=O)c(Cl)cc4N3)oc3c(Cl)cc(Cl)cc23)cc1 = 6.87 µM (inactive)
• O=C(N/C(=C\c1ccc([N+](=O)[O-])cc1)c1nc2ccccc2[nH]1)c1ccccc1 = > 100 µM (inactive)
• CC#Cc1ccc(-c2ccccc2)s1 = > 100 µM (inactive)
• Cc1ccc(C(=O)c2[nH]c(NCc3ccccc3)c(C(=S)Nc3ccccc3)c2N)cc1 = 2.38 µM (inactive)

====

# System: OVCAR-3
# testDetails: NCI tumour cell line growth inhibition, 48 h
Activity calls are given as the source filed them. No stated cut-off is given here; in the data, active = GI50 up to about 1.1 µM and inactive = higher.
Readings of GI50 for the listed compounds
endpointName: GI50

• O/N=C1\CC2(N3CCOCC3)CCC1(c1ccccc1)CC2 = > 100 µM (inactive)
• N#CC(c1ccccc1)N(CCc1ccccc1)C(=O)c1ccccc1 (stereo not drawn) = > 100 µM (inactive)
• Cc1cc(=O)oc2cc3oc(N(C)c4ccccc4)nc(=O)c3cc12 = > 100 µM (inactive)

====

# Tested on: ACHN
# testDetails: NCI tumour cell line growth inhibition, 48 h
The source made the active and inactive calls. No stated cut-off is given here; in the data, active = GI50 up to about 1.1 µM and inactive = higher.
Possible outcomes: y = active, n = inactive

- COc1c2cc(C(C)(C)C)cc1Cc1cccc(c1OCc1cccc([N+](=O)[O-])c1)Cc1cc(C(C)(C)C)cc(c1OC)Cc1cccc(c1OCc1cccc([N+](=O)[O-])c1)Cc1cc(C(C)(C)C)cc(c1OC)Cc1cccc(c1OCc1cccc([N+](=O)[O-])c1)C2: n
- COc1ccc(CCNC2=CC(=O)c3ncccc3C2=O)cc1OC: n
- COc1ccc(-n2c(SC(CN3CCOCC3)CN3CCCC3=O)nc3ccccc3c2=O)cc1 (centres undefined): n
- COC(=O)C(=O)CC(=O)c1cccc(OC)c1: n
- CC(C)(C)OC(=O)NC(Cc1ccc(OCc2ccccc2)cn1)C(N)=O (centres undefined): n
- CC(C)[Si](OCC/C=C/C1CCC(=O)C1C(O)C1CCCCC1)(C(C)C)C(C)C (centres undefined): n
- Cc1nn(C(=O)c2ccccc2O)c2c1C(c1ccccc1)SC(=N)N2 (centres undefined): y
- O=C1CC(O)c2c(Br)sc(Br)c21 (centres undefined): n
- Cc1ncc(CSc2ccccc2N)c(CO)c1O: n
- Cc1ccc(S(=O)(=O)NCCCSCCO)cc1: n
- Oc1ccc(-c2nc(-c3cccnc3)c(-c3ccc(Cl)cc3)[nH]2)cc1: n
- O=C(O)c1cccc(OCCOc2cccc(C(=O)O)c2[N+](=O)[O-])c1[N+](=O)[O-]: n
- CC(C(=O)O)/C(=C\c1ccc2c(c1)OCO2)C(=O)O (centres undefined): n
- CC(Cl)(/C=C/Cl)C(Cl)/C=C/C(Cl)(CCl)CBr (centres undefined): n
- CCOC(=O)N1CC2(C)C=CC1C(C(=O)OC)C2 (centres undefined): n
- O=C1CC2CCCCC2=C1O (centres undefined): n
- O=S(=O)(O)c1ccc([Se][Se]c2ccc(S(=O)(=O)O)cc2)cc1: n
- COc1ccc(CSc2ccccc2Cn2cccc2)cc1OC: n
- CCCc1cc(COC)c(C#N)c(O)n1: n
